Test: Metabolic stability in human hepatic microsome
Format: in vitro ADME
Settings: microsomes, pH 7.4; human hepatic microsome, NADPH(+); read-out: CL NADPH(+)
Starred links: 1 amine or outer side, 2 acyl side, 3 side chain; linkers in the order of their positions; H or OH if unused. Positions of bridges follow the written chain, without caps; N, C: chain ends. Non-standard residues stand in square brackets, D forms with d. Residues, ends and D or L forms follow the SMILES beside them. *: point of attachment. NMePhe(3-Cl) = CN[C@@H](Cc1cccc(Cl)c1)C(=O)O; NMeF = CN[C@@H](Cc1ccccc1)C(=O)O; NMeGABA = CN(CCCC(=O)[*:2])[*:1]; NMeL = CN[C@@H](CC(C)C)C(=O)O; NMeV = CN[C@H](C(=O)O)C(C)C; NMeA = CN[C@@H](C)C(=O)O; Piperidide = C1CCN(*)CC1; β3hA = C[C@H](N)CC(=O)O; Sar = CNCC(=O)O; tBu = CC(C)(C)*
VALUE TYPE: microsomal CLint at 1 uM

Sample answers from the record:
COMPOUND	microsomal CLint at 1 uM
CC(C)C[C@H]1C(=O)N(C)[C@@H](CC(C)C)C(=O)N[C@@H](COC(C)(C)C)C(=O)N[C@H](C(=O)N2CCCCC2)CC(=O)N[C@@H](C(C)C)C(=O)N(C)[C@@H](Cc2ccccc2)C(=O)N(C)CC(=O)N[C@@H]([C@@H](C)O)C(=O)N1C [DP-694] (V[NMeF][Sar]T[NMeL][NMeL]S(tBu)D-Piperidide; lactam N-8)	170 µL/min/mg
CC[C@H](C)[C@@H]1NC(=O)[C@H](CC(C)C)N(C)C(=O)[C@@H](C(C)C)NC(=O)C[C@H](C)NC(=O)[C@H](CC(C)C)N(C)C(=O)[C@H](C)N(C)C(=O)[C@H]([C@@H](C)O)NC(=O)[C@H](Cc2cccc(Cl)c2)N(C)C(=O)[C@H](C)N(C)C1=O [DP-828] (cyclo(I[NMeA][NMePhe(3-Cl)]T[NMeA][NMeL][β3hA][dV][NMeL]))	154 µL/min/mg

Now take the following compound into account.
Give microsomal CLint at 1 uM for the following compound: CC[C@H](C)[C@@H]1NC(=O)CCCN(C)C(=O)C[C@@H](C(=O)N(C)[C@@H](Cc2ccccc2)C(=O)N(C)[C@@H](Cc2ccccc2)C(=O)N[C@@H](C)C(=O)N2CCCCC2)NC(=O)[C@H](C(C)C)N(C)C(=O)[C@H](CC(C)C)N(C)C(=O)[C@H](C)NC(=O)CN(C)C(=O)[C@H]([C@@H](C)O)NC(=O)[C@H](Cc2ccccc2)N(C)C(=O)[C@H](C)N(C)C1=O [DP-392] ([NMeGABA]I[NMeA][NMeF]T[Sar]A[NMeL][NMeV]D[NMeF][NMeF]A-Piperidide; lactam N-10)
18 µL/min/mg

---

Test: Metabolic stability in human hepatic microsome
Assay type: in vitro ADME
Settings: human, microsomes, pH 7.4, CL NADPH(+)
Positions of bridges follow the written chain, without caps; N, C: chain ends. Non-standard residues stand in square brackets, D forms with d. Residues, ends and D or L forms follow the SMILES beside them. *: point of attachment. NMeF = CN[C@@H](Cc1ccccc1)C(=O)O; NMeL = CN[C@@H](CC(C)C)C(=O)O; NMeV = CN[C@H](C(=O)O)C(C)C; NMeA = CN[C@@H](C)C(=O)O; Piperidide = C1CCN(*)CC1; β3hA = C[C@H](N)CC(=O)O
Documented microsomal CLint at 1 uM across a set of compounds
All answers are understood in µL/min/mg, so give the number only.

The following compounds have reported results that may help.
COMPOUND	microsomal CLint at 1 uM / µL/min/mg
CC(C)C[C@H]1C(=O)NCC(=O)N[C@H](C(=O)N(C)[C@@H](Cc2ccccc2)C(=O)N(C)[C@@H](Cc2ccccc2)C(=O)N[C@@H](C)C(=O)N2CCCCC2)CC(=O)N[C@H](C(C)C)C(=O)N[C@@H]([C@@H](C)O)C(=O)N(C)[C@@H](C)C(=O)N(C)[C@@H](Cc2ccccc2)C(=O)N[C@@H](C(C)C)C(=O)N(C)[C@@H](Cc2ccccc2)C(=O)N1C [DP-401] ([dV]T[NMeA][NMeF]V[NMeF][NMeL]GD[NMeF][NMeF]A-Piperidide; lactam N-9)	145
CC[C@H](C)[C@@H]1NC(=O)[C@H](CC(C)C)N(C)C(=O)[C@H](Cc2ccccc2)N(C)C(=O)[C@@H](C(C)C)NC(=O)C[C@H](C)NC(=O)[C@H](CC(C)C)N(C)C(=O)[C@H](C)N(C)C(=O)[C@H]([C@@H](C)O)NC(=O)[C@H](Cc2ccccc2)N(C)C(=O)[C@H](CC(C)C)N(C)C1=O [DP-781] (cyclo(I[NMeL][NMeF]T[NMeA][NMeL][β3hA][dV][NMeF][NMeL]))	142

Kindly indicate its recorded microsomal CLint at 1 uM. Item: CC(C)C[C@H]1C(=O)N(C)[C@@H](C(C)C)C(=O)N[C@@H](Cc2ccccc2)C(=O)N[C@H](C(=O)N(C)[C@@H](Cc2ccccc2)C(=O)N[C@@H](C)C(=O)N2CCCCC2)CC(=O)N[C@H](C)C(=O)N[C@@H](C(C)C)C(=O)N(C)[C@@H](CC(C)C)C(=O)N[C@@H]([C@@H](C)O)C(=O)N(C)[C@@H](Cc2ccccc2)C(=O)NCC(=O)N1C [DP-291] ([dA]V[NMeL]T[NMeF]G[NMeL][NMeV]FD[NMeF]A-Piperidide; lactam N-10)
97
